test: protection from phage-mediated lysis, alamar blue read-out – E. coli UTI89, K1F phage, bacterial capsule biogenesis inhibitors (AID 488966);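 also: capsule biogenesis inhibitors block K1F phage lysis so surviving cells raise fluorescence; higher fluorescence means more inhibition of phage lysis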
run conditions: 2 h; at 100 µM, hits give high values unless noted
Out of some 340,000 compounds screened, about 55 (0.02%) were called active. Only a sample is shown. Entries with a potency or affinity are not part of this list.
Would you mind telling me the reported inhibition of each entry?

input: Which measured inhibition value corresponds to O=C(NN=Cc1ccccc1O)C(O)(c1ccccc1)c1ccccc1 ?
output: -1.49% (inactive)

input: Which measured inhibition value corresponds to O=S(=O)(c1ccc(S(=O)(=O)N(Cc2ccco2)Cc2ccccc2Cl)cc1)N1CCCC1 ?
output: 0.31% (inactive)

input: Which measured inhibition value corresponds to COc1ccc2[nH]c3c(c2c1)CCN1C(=O)N([C@@H](C)C(=O)NCc2ccc(F)cc2)C(=O)[C@]31C ?
output: 1.55% (inactive)

input: Which measured inhibition value corresponds to CCOC(=O)c1c(C)n(C)c2cc(-c3ccc(F)cc3)c(O)cc12 ?
output: 7.65% (inactive)

input: Which measured inhibition value corresponds to COc1ccc2cc(C(=O)NCCCN3CCCC3=O)[nH]c2c1 ?
output: 0.11% (inactive)

input: Which measured inhibition value corresponds to CCC(OC(=O)c1nsc(Cl)c1Cl)C(=O)NCCOC (centres undefined) ?
output: -0.07% (inactive)

input: Which measured inhibition value corresponds to CN(C)S(=O)(=O)c1ccc(C(=O)N(c2ccccn2)c2ccccn2)cc1 ?
output: 0.22% (inactive)

input: Which measured inhibition value corresponds to O=C(O)c1cc(-c2ccccc2)nn1CC1CC(c2cccnc2)=NO1 (centres undefined) ?
output: 1.3% (inactive)

input: Which measured inhibition value corresponds to Cc1noc(/C=C/c2ccccn2)c1[N+](=O)[O-] ?
output: 0.12% (inactive)
